- assayed-target: diazepam-insensitive [3H]Ro15-4513 binding sites in α2(H101R) mice
- protocol-text: [3H]Ro15-4513 binding to diazepam-insensitive sites, α2(H101R) mouse brain
- settings: n=3
quantity: Kd (nM)
Entry rule: numbers only, all in nM.

## Task Recorded Kd for CCOC(=O)c1ncn2c1CN(C)C(=O)c1cc(N=[N+]=[N-])ccc1-2 with diazepam-insensitive [3H]Ro15-4513 binding sites in α2(H101R) mice, please?
## Result 8

====

- assayed-target: diazepam-insensitive [3H]Ro15-4513 binding sites (α4 and α6 GABAA receptors)
- protocol-text: [3H]Ro15-4513 binding to diazepam-insensitive sites, wild type mouse brain
- settings: α2 wild type controls, n=3
quantity: Kd (nM)
Entry rule: numbers only, all in nM.

## Task # get_value(readout='Kd', item= CCOC(=O)c1ncn2c1CN(C)C(=O)c1cc(N=[N+]=[N-])ccc1-2 )
## Result 4.3
